Measured values drawn from the supplement of paper PMC10065799 for this set.

Molecular target: EPHB2 (UniProt P29323)
Sequence (P29323 whole entry, looked up): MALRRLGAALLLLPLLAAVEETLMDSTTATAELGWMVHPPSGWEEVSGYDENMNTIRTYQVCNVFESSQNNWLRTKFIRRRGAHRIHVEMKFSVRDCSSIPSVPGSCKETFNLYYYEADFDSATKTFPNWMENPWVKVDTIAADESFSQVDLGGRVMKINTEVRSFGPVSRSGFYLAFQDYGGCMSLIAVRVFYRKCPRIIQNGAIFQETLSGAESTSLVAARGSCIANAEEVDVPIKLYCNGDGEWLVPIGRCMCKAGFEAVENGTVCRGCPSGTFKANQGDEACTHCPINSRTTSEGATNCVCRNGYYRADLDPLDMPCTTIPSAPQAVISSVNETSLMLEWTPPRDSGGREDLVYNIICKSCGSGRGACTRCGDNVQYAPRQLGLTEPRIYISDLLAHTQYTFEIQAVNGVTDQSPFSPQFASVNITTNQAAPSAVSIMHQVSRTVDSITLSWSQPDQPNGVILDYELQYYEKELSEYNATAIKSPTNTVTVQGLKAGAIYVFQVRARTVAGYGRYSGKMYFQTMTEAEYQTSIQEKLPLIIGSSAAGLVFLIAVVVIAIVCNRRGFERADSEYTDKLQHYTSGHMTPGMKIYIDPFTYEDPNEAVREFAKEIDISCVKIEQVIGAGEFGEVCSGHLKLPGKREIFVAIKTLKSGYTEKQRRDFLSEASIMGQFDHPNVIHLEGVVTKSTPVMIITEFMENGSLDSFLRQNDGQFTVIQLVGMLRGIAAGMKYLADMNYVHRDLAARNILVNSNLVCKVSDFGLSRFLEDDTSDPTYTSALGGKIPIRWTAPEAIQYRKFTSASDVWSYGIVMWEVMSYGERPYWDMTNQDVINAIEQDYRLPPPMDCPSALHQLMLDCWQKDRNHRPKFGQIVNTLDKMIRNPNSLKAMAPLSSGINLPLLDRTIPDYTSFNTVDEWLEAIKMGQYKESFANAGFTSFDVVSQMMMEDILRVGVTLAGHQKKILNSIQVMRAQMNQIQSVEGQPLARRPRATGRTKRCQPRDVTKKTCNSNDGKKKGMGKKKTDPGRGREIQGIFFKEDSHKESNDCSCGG
Experiment: phosphorylation enrichment, bacterial display (enrichment ratio); higher = better substrate or ligand; peptides without Tyr show the background;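 further: 11-residue human phosphosite peptides and single-mutation variants displayed on the E. coli surface, counted by deep sequencing, each peptide's frequency after selection divided by its frequency in the unselected input library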;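 further: frequency after pTyr selection over input frequency; kinase dosed for 20-30% of maximal phosphorylation in three min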
This listing pairs sequences with measured phosphorylation enrichment.
Attribute measured: phosphorylation enrichment

Seq text: IKETHYMVDRC
Result number: 0.704
//
Seq text: AKGMKYVASKK [MET_Y1194_L1195V]
Result number: 0.276
//
Seq text: SRLSAYPALEG [CD5_Y465_H461R]
Result number: 0.495
//
Seq text: EIIPFYGMSSY [FNDC3B_Y175_T179S]
Result number: 0.77
//
Seq text: NGEDPYAGSTD [XRCC1_Y515]
Result number: 0.508
//
Seq text: ADSLRYIFPKL [EIF2B3_Y92_YF]
Result number: 0.381
//
Seq text: RNDLDYMDSRR [GAA_Y407_W402R]
Result number: 0.408

---

Biological target: EPHB1 (UniProt P54762)
Sequence (P54762 whole entry, looked up): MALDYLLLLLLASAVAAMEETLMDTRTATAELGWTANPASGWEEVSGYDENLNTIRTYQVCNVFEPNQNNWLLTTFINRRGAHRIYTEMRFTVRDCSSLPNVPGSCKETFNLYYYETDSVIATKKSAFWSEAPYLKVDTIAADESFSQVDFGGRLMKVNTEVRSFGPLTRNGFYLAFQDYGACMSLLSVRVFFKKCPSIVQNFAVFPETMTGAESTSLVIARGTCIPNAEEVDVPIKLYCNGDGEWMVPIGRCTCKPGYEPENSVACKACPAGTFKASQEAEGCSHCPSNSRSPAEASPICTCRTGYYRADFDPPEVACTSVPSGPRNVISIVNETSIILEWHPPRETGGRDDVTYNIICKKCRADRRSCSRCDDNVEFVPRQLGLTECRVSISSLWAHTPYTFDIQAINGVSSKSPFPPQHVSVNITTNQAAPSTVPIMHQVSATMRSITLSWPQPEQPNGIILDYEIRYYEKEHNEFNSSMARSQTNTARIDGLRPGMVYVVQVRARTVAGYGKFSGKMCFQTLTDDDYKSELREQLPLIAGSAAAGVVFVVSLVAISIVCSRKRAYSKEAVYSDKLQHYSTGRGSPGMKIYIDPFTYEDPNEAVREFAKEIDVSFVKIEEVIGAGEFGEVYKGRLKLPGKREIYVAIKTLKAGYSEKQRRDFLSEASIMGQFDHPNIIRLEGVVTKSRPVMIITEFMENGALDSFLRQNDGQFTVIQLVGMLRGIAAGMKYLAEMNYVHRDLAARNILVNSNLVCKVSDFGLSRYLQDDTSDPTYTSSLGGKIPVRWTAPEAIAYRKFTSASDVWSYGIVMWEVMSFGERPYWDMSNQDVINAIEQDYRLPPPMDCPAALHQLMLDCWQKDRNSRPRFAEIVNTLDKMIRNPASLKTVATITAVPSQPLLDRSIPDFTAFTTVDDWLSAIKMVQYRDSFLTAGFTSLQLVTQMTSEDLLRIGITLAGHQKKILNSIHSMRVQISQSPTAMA
Experiment: phosphorylation enrichment, bacterial display (enrichment ratio); higher = better substrate or ligand; peptides without Tyr show the background
This listing pairs sequences with measured phosphorylation enrichment.
Attribute measured: phosphorylation enrichment

Seq text: EVESPYEVHDF [GIGYF2_Y1168_YF]
Assayed system: EPHB1 (UniProt P54762)
Result number: 0.837

Seq text: YRAPGYREVVI [TNS2_Y673]
Assayed system: EPHB1 (UniProt P54762)
Result number: 0.445

Seq text: RASQEYHIVKK [PDZD2_Y557_S552R]
Assayed system: EPHB1 (UniProt P54762)
Result number: 0.754

Seq text: ATAKGYEPDAS [OTC_Y223_P220A]
Assayed system: EPHB1 (UniProt P54762)
Result number: 0.523

Seq text: NKEAIYSGYIR [SMCHD1_Y283]
Assayed system: EPHB1 (UniProt P54762)
Result number: 5.4

Seq text: QLQQAYQEAFE [YWHAZ_Y149_S145L]
Assayed system: EPHB1 (UniProt P54762)
Result number: 1.43

Seq text: HLTLVYGGIFL [FBP1_Y259_R255L]
Assayed system: EPHB1 (UniProt P54762)
Result number: 0.743

Seq text: DKATEYIQFVR [MAX_Y70_M74V_YF]
Assayed system: EPHB1 (UniProt P54762)
Result number: 0.503

Seq text: RLYARYFQGDL [PDK3_Y337]
Assayed system: EPHB1 (UniProt P54762)
Result number: 0.705

Seq text: EYITRYIDSLK [PSMA7_Y110_A112D]
Assayed system: EPHB1 (UniProt P54762)
Result number: 0.396

Seq text: EYGSGYPNDPK [RNASEH2A_Y210_D205E]
Assayed system: EPHB1 (UniProt P54762)
Result number: 0.369

Seq text: DNQFAYLKAII [HNF4A_Y288_E285Q_YF]
Assayed system: EPHB1 (UniProt P54762)
Result number: 0.43

Seq text: YQCKHYACIRQ [TIMP3_Y182_S179C]
Assayed system: EPHB1 (UniProt P54762)
Result number: 0.371

Seq text: EEGRVYVYRLS [ITGAE_Y549]
Assayed system: EPHB1 (UniProt P54762)
Result number: 0.595
